Numbers sourced from PubChem BioAssay AID1159524.

assay: High Throughput Screening for Foot and Mouth Disease Virus Antivirals; settings: FMDV antiviral cell-based qHTS; series mostly up to 57.9 µM
Among all 410,000 compounds or so, about 5,100 (1.2%) were called active. Inconclusive results (about 8%) are left out. Calls follow the shape of the full dose curve; tested in HEK293T cells. The list comes from a sample in which actives are over-represented; it also holds close analogues and randomly drawn compounds.
// allowed return values: active, inactive

What call does the record list for Cc1cc(C)cc(CN2CCc3nnc(C(NS(C)(=O)=O)C(C)C)n3CC2)c1 (stereo not given) ? inactive

What call does the record list for "COc1ccc(NC(=O)CSc2nccn2C2CCCC2)cc1OC" ? inactive

What call does the record list for CCOC(=O)C1CCCN(C(=O)c2ccc3c(c2)sc2nc(-c4ccc(CC)cc4)cn23)C1 (stereo not given) ? active

What call does the record list for "O=C(CCl)Nc1ccc(Sc2ccc(NC(=O)CCl)cc2)cc1" ? active

Next:
What call does the record list for O=C(O)CC(SCC(=O)Nc1ccc(Br)cc1)C(=O)O (stereo not given) ? inactive

What call does the record list for "O=c1oc2ccccc2c(O)c1C(c1ccccc1O)c1c(O)c2ccccc2oc1=O" ? inactive

What call does the record list for "COc1ccc(CCNC(=O)c2ccc3c(c2)sc2nc(-c4ccc(C)cc4)cn23)cc1OC" ? inactive

What call does the record list for "CCOC(=O)CSc1nc2ccc(C)cc2n2cnnc12" ? inactive

What call does the record list for CC1(C)OC2CC3C4CCC5=CC(=O)CCC5(C)C4(F)C(O)CC3(C)[C@]2(C(=O)CCl)O1 (stereo not given in full) ? inactive

What call does the record list for "c1ccc(CC2CCN(c3nc4ccccc4n4cnnc34)CC2)cc1" ? inactive

----------
assay: High Throughput Screening for Foot and Mouth Disease Virus Antivirals; settings: FMDV antiviral cell-based qHTS; series mostly up to 57.9 µM; also: potency is read from the fitted curve at half-maximal effect
The campaign covered roughly 410,000 compounds. About 5,100 (1.2%) were called active. About 8% were inconclusive and are not listed. Only a selection was taken, and actives are over-represented in it overall.
Result type: Potency

Example results:
Look up Potency: "Cc1[nH]c(=O)c(C(=O)/C=C/c2ccccc2)c2c1CCCC2" 12.6 µM (active)

Look up Potency: "COc1cc2c(=O)n(C)c3ccccc3c2cc1OC" inactive

Look up Potency: O=C1CCCCC1C(=O)c1ccccc1 (stereo unspecified) inactive

Look up Potency: COc1cc(C2c3c(oc4ccccc4c3=O)C(=O)N2c2nc(C)c(C)s2)ccc1O (stereo unspecified) inactive

Look up Potency: "CNS(=O)(=O)c1cccc(C(=O)OCC(=O)N2c3ccccc3NC(=O)C2(C)C)c1" inactive

Look up Potency: Cc1cccc(C2CC(=O)Oc3c2c(=O)n(C)c2ccccc32)c1 (stereo unspecified) inactive

Look up Potency: "COc1cc(Cl)c(C)cc1Nc1nnc(-n2nc(C)cc2C)c2ccccc12" inactive

Look up Potency: "Cc1ccc(OCCC(=O)OCC(=O)N2c3ccccc3NC(=O)C2(C)C)cc1" inactive

Next:
Look up Potency: "CCNc1ccc(C(=O)OCC(=O)N2c3ccccc3NC(=O)C2(C)C)cc1[N+](=O)[O-]" 20 µM (active)

Look up Potency: "CC(C)OC(=O)c1ccc(COc2ccc3ccc(=O)oc3c2)o1" inactive

Look up Potency: "COC(=O)c1ccccc1NC(=O)c1ccc2c(=O)n3c(nc2c1)CCCCC3" inactive

----------
experiment: High Throughput Screening for Foot and Mouth Disease Virus Antivirals; conditions: FMDV antiviral cell-based qHTS; series mostly up to 57.9 µM; also: read-out not given here; nearly all actives have a fitted effect of over 45% in size
About 5,100 (1.2%) of roughly 410,000 compounds were called active. Inconclusive results (about 8%) are left out. Calls follow the shape of the full dose curve; tested in HEK293T cells. What follows is part of a selection rich in actives, with near analogues and random picks from the rest.
// allowed return values: class 1 = active, class 0 = inactive

Recorded results for 3 compounds are shown here.
What call does the record list for "C=C1O[C@@](CO)(n2cnc3c(N)ncnc32)[C@H](O)[C@@H]1O" ? class 0

What call does the record list for CCCC1OC23CCCCC2C(C#N)(C#N)C1(C#N)C(=N)O3 (stereo unspecified) ? class 1

What call does the record list for "c1ccc(CN2CC[C@@]3(CCCNC3)C2)cc1" ? class 0

Next:
What call does the record list for "CCn1c2ccccc2c2nnc(SCC(=O)O)nc21" ? class 0

What call does the record list for Cc1ccc(CCNC(=O)c2ccc3c(c2)nc2n3CCC(C)C2)cc1 (stereo unspecified) ? class 0

What call does the record list for "O=C(c1ccncc1)N1CCC2(CCN(Cc3cc(C(F)(F)F)cc(C(F)(F)F)c3)CC2)CC1" ? class 0

What call does the record list for "O=c1oc2ccccc2cc1-c1cn(-c2ccccc2)c(=S)[nH]1" ? class 1

What call does the record list for "Clc1cc(NC2CCCCC2)ncn1" ? class 0

----------
test: High Throughput Screening for Foot and Mouth Disease Virus Antivirals; details: FMDV antiviral cell-based qHTS; series mostly up to 57.9 µM; also: potency is read from the fitted curve at half-maximal effect; also: read-out not given here; nearly all actives have a fitted effect of over 45% in size
Screen size: about 410,000 compounds; about 5,100 (1.2%) were called active. Another 8% or so got no clear call; they are omitted. This is one part of a sample in which actives are shown more often than they occur.
Result type: Potency

Look up Potency: CC(=O)OCC(=O)C1CCC2C3CCC4=CC(=O)CC[C@@]4(C)C3CC[C@]12C (stereo not given in full) inactive

Look up Potency: CC(=O)OCC(=O)[C@@]1(O)CCC2C3CCC4=CC(=O)CC[C@]4(C)C3C(=O)C[C@]21C (stereo not given in full) inactive

Look up Potency: Cc1ccc(NC(=O)Nc2sc3nc4n(c(=O)c3c2C)CCC(C)CC4)c(Cl)c1 (stereo not given) inactive

Look up Potency: CC(C)C1=CC2=CC[C@H]3[C@](C)(C(=O)O)CCC[C@]3(C)C2CC1 (stereo not given in full) inactive

Next:
Look up Potency: CSc1ncnc2c1ncn2CC(=O)C1CCC2C3CCC4=CC(=O)CCC4(C)C3CCC12C (stereo not given) 11.2 µM (active)

----------
assay: High Throughput Screening for Foot and Mouth Disease Virus Antivirals; settings: FMDV antiviral cell-based qHTS; series mostly up to 57.9 µM; also: read-out not given here; nearly all actives have a fitted effect of over 45% in size
The campaign covered roughly 410,000 compounds. About 5,100 (1.2%) were called active. Another 8% or so got no clear call; they are omitted. Calls come from the whole dose curve; tested in HEK293T cells. The list comes from a sample in which actives are over-represented; it also holds close analogues and randomly drawn compounds.
// allowed return values: 1.0 (active), 0.0 (inactive)

Recorded results for 4 compounds are shown here.
What call does the record list for "COc1cccc(CNC(=O)Cc2csc3nc(-c4ccccc4)cn23)c1" ? 0.0

What call does the record list for "O=C(c1ccco1)N1CCC2(CC1)CCN(c1ncccn1)CC2" ? 0.0

What call does the record list for "Nc1ccc([N+](=O)[O-])cc1" ? 0.0

What call does the record list for "COc1ccc(CC(=O)Nc2nnc3n2CCS3)cc1OC" ? 0.0

Next:
What call does the record list for "Fc1ccc(-c2csc(-c3ccc(C4SCCS4)cc3)n2)cc1F" ? 0.0

What call does the record list for O=S(=O)(NCC(c1ccccc1)N1CCc2ccccc21)c1ccccc1 (stereo unspecified) ? 0.0

What call does the record list for "COc1cccc(CC(=O)Nc2nc(-c3ccc(OC)c(OC)c3)cs2)c1" ? 1.0

What call does the record list for "CCc1ccc(OCC(=O)N2CCN(CC(=O)Nc3ccccc3Cl)CC2)cc1" ? 0.0

What call does the record list for "COc1ccc(CC(=O)Nc2nc(-c3ccc(F)c(F)c3)cs2)cc1OC" ? 1.0

What call does the record list for "COc1cc(CC(=O)Nc2nc(-c3ccc(F)c(F)c3)cs2)cc(OC)c1OC" ? 1.0

What call does the record list for "COc1ccc(CC(=O)Nc2ccc(-c3nc4ccccc4s3)c(C)c2)cc1" ? 0.0

----------
experiment: High Throughput Screening for Foot and Mouth Disease Virus Antivirals; details: FMDV antiviral cell-based qHTS; series mostly up to 57.9 µM; also: read-out not given here; nearly all actives have a fitted effect of over 45% in size
Among all 410,000 compounds or so, about 5,100 (1.2%) were called active. Not shown: some 8% with an inconclusive outcome. Calls follow the shape of the full dose curve; tested in HEK293T cells. What follows is part of a selection rich in actives, with near analogues and random picks from the rest.
// allowed return values: active, inactive

Recorded results for 5 compounds are shown here.
What call does the record list for "COc1cccc(CNC(=O)c2ccc3c(Cl)c4c(nc3c2)CCCC4)c1" ? inactive

What call does the record list for "COc1ccc(OC)c(CNC(=O)CN2C(=O)CCn3nc(-c4cn(C)c5ccccc45)cc32)c1" ? inactive

What call does the record list for "COc1ccc(OCc2ccc(-c3nc(C#N)c(N4CCN(c5ccccc5)CC4)o3)o2)cc1" ? inactive

What call does the record list for "CNc1nc(-c2ccccc2OC)nc2ccccc12" ? inactive

What call does the record list for "Cc1cccc2nc(-c3ccc(Cl)s3)c(Nc3ccc4c(c3)OCCO4)n12" ? inactive

Next:
What call does the record list for "N#Cc1nc(-c2ccc(OCc3ccccc3)cc2)oc1NCCCN1CCOCC1" ? active

What call does the record list for CCCc1nc2c([nH]1)C(c1cccnc1)C(C#N)=C(N)O2 (configuration not stated) ? inactive

What call does the record list for Cc1ccc(NC(=O)c2ccc(CN3CC(=O)N4CCCCC4C3=O)cc2)c(Cl)c1 (configuration not stated) ? inactive

What call does the record list for "CCOC(=O)c1c(-c2ccc(OC)cc2)oc2ccc(OCc3ccc(C(=O)OC)cc3)cc12" ? inactive
